tgt: MSI1 full-length (mouse, UniProt Q61474 1-362)
Sequence (Q61474 whole entry): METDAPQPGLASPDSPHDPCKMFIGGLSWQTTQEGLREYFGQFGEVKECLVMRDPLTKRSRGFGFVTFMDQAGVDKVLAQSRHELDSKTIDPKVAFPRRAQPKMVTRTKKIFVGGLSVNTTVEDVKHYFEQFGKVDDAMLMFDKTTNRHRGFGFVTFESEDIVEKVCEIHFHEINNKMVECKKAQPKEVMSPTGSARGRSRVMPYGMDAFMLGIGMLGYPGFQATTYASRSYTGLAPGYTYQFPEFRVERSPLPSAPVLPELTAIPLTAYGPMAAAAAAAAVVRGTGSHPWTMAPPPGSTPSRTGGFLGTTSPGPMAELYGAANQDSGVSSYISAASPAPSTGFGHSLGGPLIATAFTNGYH
measurement-notes: nsRBNS (natural sequence RNA bind-n-seq); RBNS binding buffer (assumed for nsRBNS): 25 mM Tris pH 7.5, 150 mM KCl, 3 mM MgCl2, 0.01% Triton X-100, 500 ug/ml BSA, 20 U/ml SUPERase-In, 4 C; UNK is unkempt and MSI1 is Musashi-1; names of the RNAs are library labels; protein concentration not given here; high values mean tight binding
Over roughly 5,800 sequences, “enrichment r” has its median near 0.54; the highest 2% begin near 16. Many of the other results were omitted from the sample, so the highest values are more common in it than they were.
readout-label: binding signal
Entry format: amount then unit.

// worked examples, binding signal included
binder: chr19:34469546:34469571:+|3pUTR|ENSG00000126261|msi1_unk|FALSE|overlapping (ssRNA) RNA: GGGAGUUCUACAGUCCGACGAUCGUUGCCUUUUUAAUGUAAAUACCCGUAGGUAUCAUUAAUAGUUUCAAAAUAUUGUGGUUUAGUAAAGUUGAUACCUGGUUAUAAAUAUUAUGCCUUUAUUUUUGGCUAGAAGAAGAAUUACAACAGAGGAUUGAGCAUCA
binding signal: 35.8 enrichment R
--
binder: chr18:68676332:68676434:-|3pUTR|ENSG00000166479|msi1_unk|total|mutant (ssRNA) RNA: GGGAGUUCUACAGUCCGACGAUCAUCAAGAUUAUGAGGUUAAAAAUAAUGUGGUUUUAUACCGCACCGUGGUUUUAUUUUGUCCGUUAUUUUUAAAGGAGAAGAAAUGUUACUUUUUAACUUUAUACUCAGUUGCAUUAUCAUCAACAGAGGAUUGAGCAUCA
binding signal: 0.295 enrichment R
--
binder: chr1:232398519:232398625:-|3pUTR|ENSG00000116991|unk|total|mutant (ssRNA) RNA: GGGAGUUCUACAGUCCGACGAUCACAGCCGUUUUAUUUCCACAGCCACAUUACCACCGCAAUAAGAAAGGAGGCACCGUACACCGUUGGAAAAGCUUUGUGGGGGGAUUAAAAAAAAAAAAAAGCACUGUUGUGUUUAACACUCAACAGAGGAUUGAGCAUCA
binding signal: 0.46 enrichment R
--
binder: ENSG00000198589:be:win_801|CDS|ENSG00000198589|bound_else_gene|NA|bound_elsewhere_windowed (ssRNA) RNA: GGGAGUUCUACAGUCCGACGAUCUCAUUUUGUUGGAGGCUGUUUGAUUGUAACAUCAAUAAAGUCAAAAGGAAAAGGCUUUCAACACUGUGUGAAAUUUGAUUUCAAGCCACAAAAGUGGUAUAUGGUUACCAUAGUACACAUCAACAGAGGAUUGAGCAUCA
binding signal: 0.264 enrichment R

Kindly give each listed record's binding signal.
1. chr20:1375301:1375603:-|CDS|ENSG00000088832|control|control|control (ssRNA) RNA: GGGAGUUCUACAGUCCGACGAUCGGUAUGCUCUCUCAUUUGUUUUGUUUUGCUUUCUAGUAUUUACCUUUUAUAUUUUUUUAUAGGUGGCAUAUUUAUACGGUUCAAAAAUAAAAAAAGUGAAAAGUCUCACCCUCAUGCCAUCAACAGAGGAUUGAGCAUCA
2. ENSG00000136451:be:win_3251|3pUTR|ENSG00000136451|bound_else_gene|NA|bound_elsewhere_windowed (ssRNA) RNA: GGGAGUUCUACAGUCCGACGAUCCUUAGUGUAAAAUAAUUUUAUAAAUGAUCUUUUGUACUUUAGGACAUUAAAUUGUACAACUUUUGUAUAUAUAAAAGCUUAGGAACUUUCUGUUUAGCAGGAAGGCAACACAUUCCUACACAACAGAGGAUUGAGCAUCA
3. ENSG00000136451:be:win_3201|3pUTR|ENSG00000136451|bound_else_gene|NA|bound_elsewhere_windowed (ssRNA) RNA: GGGAGUUCUACAGUCCGACGAUCAACAGUUCUAGGGGGUUGAACUACAUAGUAAAAAAAUAAAAUAAAUAGUACUUAGUGUAAAAUAAUUUUAUAAAUGAUCUUUUGUACUUUAGGACAUUAAAUUGUACAACUUUUGUAUAUCAACAGAGGAUUGAGCAUCA

Given back:
["2.12 enrichment R", "10.7 enrichment R", "23.1 enrichment R"]
